Biological target: human NOX4 (Homo sapiens, UniProt Q9NPH5)
Construct: expressed in transfected cells; membrane fraction used
Assay: Cell free membrane based in vitro NOX4 assay: H2O2 production by membranes expressing human NOX4, measured with Amplex Red
Assay type: biochemical
Settings: 10.0 μM compound, read-out: Percentage inhibition at 10.0 μM
Returns one of 1 or -1; 1 when inhibition at 10 µM is >= 80%.

Is inhibition at 10 µM for Cn1nc(C(F)(F)F)c2c(=O)c(O)c(-c3ccc(Cl)cc3F)[nH]c21 at or above 80%?
1

Proceed to Cc1nn(C)c2oc(-c3ccccc3Cl)c(O)c(=O)c12
-1

Proceed to COc1ccc(-c2[nH]c3c(c(C)nn3-c3ccc(F)cc3)c(=O)c2O)c(F)c1
1

Proceed to CCc1nn(CC2CCOCC2)c2[nH]c(-c3ccccc3Cl)c(O)c(=O)c12
-1

Proceed to Cn1nc(C(F)(F)F)c2c(=O)c(O)c(-c3cc(Cl)ccc3Cl)[nH]c21
1

Proceed to CCc1nn(CCN2CCC(F)(F)CC2)c2[nH]c(-c3c(F)cccc3F)c(O)c(=O)c12
1

Proceed to CC(C)N1CCN(Cc2nn(C)c3[nH]c(-c4c(F)cccc4F)c(O)c(=O)c23)CC1
1

###

Task for the reader: assign each of the following compounds its reported inhibition at 1 µM.
Molecular target: human NOX4 (Homo sapiens)
Construct: expressed in transfected cells; membrane fraction used
Assay: Cell free membrane based in vitro NOX4 assay: H2O2 production by membranes expressing human NOX4, measured with Amplex Red
Format: biochemical
Conditions: 1.0 μM compound, read-out: Percentage inhibition at 1.0 μM
Answer format: numeric, % implied, no suffix.

// fetch human NOX4 (Homo sapiens) inhibition at 1 µM for O=c1c(O)c(-c2ccccc2Cl)[nH]c2c1cnn2-c1ccc(F)cc1 [Example 10]
100

Proceed to COc1ccc(-c2[nH]c3c(c(C)nn3C)c(=O)c2O)c(F)c1 [Example 19]
95.3

Proceed to COCCCn1nc(C)c2c(=O)c(O)c(-c3c(F)cccc3F)[nH]c21 [Example 92]
75.6

Proceed to Cc1nn(-c2ccc(F)c(F)c2)c2[nH]c(-c3ccccc3Cl)c(O)c(=O)c12 [Example 31]
100

Proceed to COCCn1nc(C)c2c(=O)c(O)c(-c3c(F)cccc3F)[nH]c21 [Example 90]
100

###

Target: human NOX4 (Homo sapiens)
Construct: membrane fraction used
Sequence (Q9NPH5 1-578): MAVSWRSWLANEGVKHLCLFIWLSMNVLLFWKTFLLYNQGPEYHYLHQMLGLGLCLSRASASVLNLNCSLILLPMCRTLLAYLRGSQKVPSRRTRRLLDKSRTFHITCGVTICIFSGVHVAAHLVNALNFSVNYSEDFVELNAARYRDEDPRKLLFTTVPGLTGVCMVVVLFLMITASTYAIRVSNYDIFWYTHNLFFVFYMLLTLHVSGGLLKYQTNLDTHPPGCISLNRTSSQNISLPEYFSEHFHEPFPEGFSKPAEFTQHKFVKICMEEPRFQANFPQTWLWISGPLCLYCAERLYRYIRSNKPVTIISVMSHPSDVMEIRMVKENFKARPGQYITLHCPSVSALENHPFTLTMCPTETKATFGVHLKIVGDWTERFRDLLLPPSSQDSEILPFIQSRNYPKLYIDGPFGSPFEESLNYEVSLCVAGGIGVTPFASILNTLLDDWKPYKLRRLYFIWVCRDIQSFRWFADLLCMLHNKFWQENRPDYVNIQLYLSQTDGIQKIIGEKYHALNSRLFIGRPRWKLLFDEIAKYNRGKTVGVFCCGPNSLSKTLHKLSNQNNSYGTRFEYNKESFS
Sequence (P13498 1-195 partner): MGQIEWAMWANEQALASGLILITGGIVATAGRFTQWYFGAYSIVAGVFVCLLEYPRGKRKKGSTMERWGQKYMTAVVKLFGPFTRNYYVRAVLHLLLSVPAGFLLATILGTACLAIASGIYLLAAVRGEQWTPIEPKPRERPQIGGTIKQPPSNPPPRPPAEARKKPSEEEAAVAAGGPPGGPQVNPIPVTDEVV
Test: Cell free membrane based in vitro NOX4 assay: H2O2 production by membranes expressing human NOX4, measured with Amplex Red
Conditions: class symbols
pIC50: −log10 of the molar value.
Task for the reader: assign each of the following molecules its reported pIC50.

Please look up its pIC50: Cn1ncc2c(=O)c(O)c(-c3cccc(Cl)c3)[nH]c21 [Example 4]
< 6.82

Proceed to Cc1nn(C2CC2)c2[nH]c(-c3c(F)cccc3F)c(O)c(=O)c12 [Example 87]
6.82 to 7.00

Proceed to Cc1nn(-c2ccc(F)c(F)c2)c2[nH]c(-c3ccccc3Cl)c(O)c(=O)c12 [Example 31]
> 7.30

Proceed to CCCn1nc(C)c2c(=O)c(O)c(-c3c(F)cccc3F)[nH]c21 [Example 79]
6.82 to 7.00

Proceed to O=c1c(O)c(-c2c(F)cccc2F)[nH]c2[nH]nc(C(F)(F)F)c12 [Example 98]
7.00 to 7.30

Proceed to Cn1nc(C(F)(F)F)c2c(=O)c(O)c(-c3cc(Cl)ccc3Cl)[nH]c21 [Example 50]
6.82 to 7.00

Proceed to Cc1nn(C)c2[nH]c(-c3ccc(C(F)(F)F)cc3F)c(O)c(=O)c12 [Example 21]
< 6.82

Proceed to Cc1nn(C)c2[nH]c(-c3ccc(C(F)(F)F)c(F)c3)c(O)c(=O)c12 [Example 22]
< 6.82

Proceed to COc1ccc(Cl)c(-c2[nH]c3c(c(C(F)(F)F)nn3C)c(=O)c2O)c1 [Example 49]
< 6.82

Proceed to CCc1nn(C)c2[nH]c(-c3ccccc3Cl)c(O)c(=O)c12 [Example 56]
> 7.30

Proceed to C[C@@H]1CN(Cc2nn(C)c3[nH]c(-c4c(F)cccc4F)c(O)c(=O)c23)C[C@H](C)O1 [Example 197]
6.82 to 7.00

Proceed to Cc1nn(CCN2CCCC2)c2[nH]c(-c3ccccc3Cl)c(O)c(=O)c12 [Example 151]
< 6.82

###

Task for the reader: assign each of the following compounds its reported inhibition at 1 µM.
Target: human NOX4 (Homo sapiens, UniProt Q9NPH5)
Construct: expressed in transfected cells; membrane fraction used
Assay: Cell free membrane based in vitro NOX4 assay: H2O2 production by membranes expressing human NOX4, measured with Amplex Red
Type: biochemical
Details: 1.0 μM compound, read-out: Percentage inhibition at 1.0 μM
Answer format: numeric, % implied, no suffix.

Please look up its inhibition at 1 µM: CCc1nn(C)c2[nH]c(-c3cccc(C(F)(F)F)c3F)c(O)c(=O)c12 [Example 160]
80.7

Proceed to Cc1nn(C2CCOCC2)c2[nH]c(-c3cc(CNC(=O)C(C)(C)C)ccc3Cl)c(O)c(=O)c12 [Example 142]
80.4

Proceed to Cc1nn(CCN2CCCC2)c2[nH]c(-c3ccccc3Cl)c(O)c(=O)c12 [Example 151]
81.1

Proceed to Cc1nn(-c2ccc(F)cc2Cl)c2[nH]c(-c3ccccc3Cl)c(O)c(=O)c12 [Example 141]
77.9

Proceed to Cn1nc(-c2ccc(F)cc2)c2c(=O)c(O)c(-c3c(F)cccc3F)[nH]c21 [Example 113]
91.3

###

Task for the reader: assign each of the following compounds its reported inhibition at 10 µM.
Biological target: human NOX4 (Homo sapiens, UniProt Q9NPH5)
Construct: expressed in transfected cells; membrane fraction used
Test: Cell free membrane based in vitro NOX4 assay: H2O2 production by membranes expressing human NOX4, measured with Amplex Red
Type: biochemical
Conditions: 10.0 μM compound, read-out: Percentage inhibition at 10.0 μM
Answer format: numeric, % implied, no suffix.

// fetch human NOX4 (Homo sapiens, UniProt Q9NPH5) inhibition at 10 µM for CCc1nn(CCN2CCN(C)CC2)c2[nH]c(-c3ccccc3Cl)c(O)c(=O)c12 [Example 165]
80.1

Proceed to Cn1nc(C(F)(F)F)c2c(=O)c(O)c(-c3c(F)cccc3Cl)[nH]c21 [Example 45]
98.6

Proceed to CCc1nn(CCC(C)C)c2[nH]c(-c3ccccc3Cl)c(O)c(=O)c12 [Example 181]
100

Proceed to Cn1nc(C(F)(F)F)c2c(=O)c(O)c(-c3ccccc3F)[nH]c21 [Example 41]
87.6

Proceed to Cn1nc(C(F)(F)F)c2c(=O)c(O)c(-c3cc(CNC(=O)C(C)(C)C)ccc3F)[nH]c21 [Example 135]
90.7

Proceed to C[C@@H]1CN(Cc2nn(C)c3[nH]c(-c4c(F)cccc4F)c(O)c(=O)c23)C[C@H](C)O1 [Example 197]
100

Proceed to CCc1nn(CCC2CCOCC2)c2[nH]c(-c3cccc(C(F)(F)F)c3F)c(O)c(=O)c12 [Example 213]
75.6

Proceed to Cn1nc(C(F)(F)F)c2c(=O)c(O)c(-c3ccc(NS(C)(=O)=O)cc3F)[nH]c21 [Example 237]
74.3

Proceed to Cc1nn(C)c2[nH]c(-c3ccc(F)cc3F)c(O)c(=O)c12 [Example 14]
82.5

Proceed to O=c1c(O)c(-c2ccccc2Cl)[nH]c2c1cnn2CC(F)(F)F [Example 8]
100

Proceed to Cn1nc(C2CCOCC2)c2c(=O)c(O)c(-c3c(F)cccc3F)[nH]c21 [Example 189]
98.6

Proceed to Cc1nn(-c2ccc(F)cc2Cl)c2[nH]c(-c3c(F)cccc3F)c(O)c(=O)c12 [Example 139]
100

Hello, the source for this data is patent US20200247800A1, in case you need it.
